System: TNFα-FL/Gaussia Luciferase
Assay: Dox Induced TNFα-FL-Gluc Assay
Assay type: cell-based
Conditions: ratio of TNFaFLGluc IC50 to PD1ssGluc IC50
Answer each item with its documented 24 hr Dox Inducible TNFaFLGluc 293FRT/TO: TNF/PD1.
Give bare numbers.

Sample answers from the record:
INSERT INTO results (compound, valueobserved) VALUES
  ('O=C(Nc1nc(/C=C/C2CN(c3ccccc3)CCO2)cs1)c1cccn1Cc1ccncc1 (stereo not drawn)', 53.3),
  ('O=C(Nc1nc([C@H]2CCCN2c2cccnn2)cs1)c1cccn1Cc1ccncc1', 24.4),
  ('Cc1ocnc1/C=C/c1csc(NC(=O)c2cccn2Cc2ccnc(F)c2)n1', 454),
  ('O=C(Nc1ccc(N2CCC[C@@H]2c2csc(NC(=O)c3cccn3Cc3ccnc(F)c3)n2)cc1)OC1CNC1', 39),
  ('CN(C)C(=O)N1CC(Oc2ccc(N3CCC[C@@H]3c3csc(NC(=O)c4cccn4Cc4ccnc(F)c4)n3)cc2)C1', 16.4);

Could I get 24 hr Dox Inducible TNFaFLGluc 293FRT/TO: TNF/PD1 for every one of these entries?
1. O=C(Nc1nc([C@H]2CCCN2c2ccc(CCO)cc2)cs1)c1cccn1Cc1ccnc(F)c1
2. CC(=O)N1CCC(Oc2ccc(N3CCC[C@@H]3c3csc(NC(=O)c4cccn4Cc4ccnc(F)c4)n3)c(F)c2)CC1
3. CC(=O)Nc1ccc(N2CCC[C@@H]2c2csc(NC(=O)c3cccn3Cc3cc(F)nc(F)c3)n2)cc1
4. Nc1ccc(N2CCC[C@@H]2c2csc(NC(=O)c3cccn3Cc3ccncc3)n2)cc1
5. CC(=O)N1CC(CCc2ccc(N3CCC[C@@H]3c3csc(NC(=O)c4cccn4Cc4ccnc(F)c4)n3)cc2)C1
6. O=C1CCc2cc(N3CCC[C@@H]3c3csc(NC(=O)c4cccn4Cc4ccncc4)n3)ccc2N1

1: 12; 2: 8.57; 3: 24.2; 4: 8; 5: 32.4; 6: 28.4
